These measurements were taken from patent US12344610B2.

Parameter pEC50: see the listing below.
- System: HEK293 cells overexpressing APOL1 G2
- assayExplanation: APOL1 G2 HEK293 cell rescue assay (reversal of cell death caused by overexpression of APOL1)
- Assay type: cell-based
- measurementConditions: Homo sapiens, HEK293, HEK293 overexpressing APOL1 G2; geometric mean of at least 2 assay runs; † = single assay run
pEC50: −log10 of the molar value.
quantityKind: pEC50

- CC(=O)N1CCc2cc(OCCN3CCC4(CC3)C(=O)N(C)c3ccccc34)ccc2C1 [Compound 58]: 5.88
- CN1C(=O)C2(CCN(CCOc3ccc(C4(S(C)(=O)=O)CC(O)C4)cc3)CC2)c2cc(C(F)F)ccc21 (stereo not shown) [Compound 277]: 7.47
- C[C@]1(O)C[C@@H](N2C(=O)CCc3cc(OCCN4CCC5(CC4)C(=O)Nc4ccc(C#N)cc45)cnc32)C1 [Compound 404]: 6.89
- CN=S(C)(=O)c1ccc(OCCN2CCC3(CC2)C(=O)Nc2ccc(C#N)cc23)cc1 (stereo not shown) [Compound 150]: 6.64
- [2H]C([2H])([2H])N1C(=O)C2(CCN(CCOc3ccc4c(c3)CN(C)C4=O)CC2)c2cc(Cl)ccc21 [Compound 416]: 6.77
- O=C1CCc2cc(OCCN3CCC4(CC3)C(=O)Nc3ccc(Cl)cc34)cnc2N1[C@H]1C[C@@H](O)C1 [Compound 190]: 7.26
- C[C@]1(O)C[C@@H](n2c(=O)n(CO)c3cc(OCCN4CCC5(CC4)C(=O)Nc4ccc(C#N)cc45)cc(C(F)(F)F)c32)C1 [Compound 469]: 7.70

---

- Tested on: HEK293 clonal cell line overexpressing APOL1 G1
- assayExplanation: APOL1 G1 HEK293 cell rescue assay (Example B3)
- Format: cell-based
- measurementConditions: Homo sapiens, HEK293, HEK293 clonal line overexpressing APOL1 G1; geometric mean of at least 2 runs; † = single run; ¥ = concentration at 50% rescue estimated (no sigmoidal curve)
quantityKind: EC50 (nM)

- C[C@@H](COc1ccc(S(C)(=O)=O)cc1)N1CCC2(CC1)C(=O)Nc1ccc(Cl)cc12 (single isomer, unassigned): 444
- CC1(O)CC(CN2C(=O)CCc3cc(OCCN4CCC5(CC4)C(=O)Nc4ccc(C(F)F)cc45)cnc32)C1 (single isomer, unassigned) [Compound 311]: 100
- Cc1nc2cc(OCCN3CCC4(CC3)C(=O)Nc3ccc(C#N)cc34)cc(C(F)(F)F)c2n1[C@H]1C[C@@](C)(O)C1: 30.8
- O=C1CCc2cc(OCCN3CCC4(CC3)C(=O)Nc3ccc(C(F)F)cc34)cnc2N1C1CC(CO)C1 (stereo not drawn) [Compound 316]: 99.4
- O=C1CCC2c3ccc(OCCN4CCC5(CC4)C(=O)Nc4ccc(Cl)cc45)cc3CCN12 (single isomer, unassigned) [Compound 122]: 188
- CS(=O)(=O)c1ccc(OCCN2CCC3(CC2)C(=O)N(CCO)c2ccc(Cl)cc23)cc1C(F)F: 132
- CS(=O)(=O)c1ccc(OCCN2CCC3(CC2)C(=O)N(CCO)c2ccc(C#N)cc23)cc1C(F)F: 353
- O=C1Nc2ccc(Cl)cc2C12CCN(CCOc1ccc3nccnc3c1)CC2: 433
- CN1C(=O)CCc2cc(OCCN3CCC4(CC3)C(=O)Nc3ccc(Cl)cc34)ccc21: 186
- CC1(O)CN(c2ncc(OCCN3CCC4(CC3)C(=O)Nc3ccc(Cl)cc34)cn2)C1: 183
- O=C1Nc2ccc(Cl)cc2C12CCN(CCOc1cnc(C3(O)CCC3)nc1)CC2: 123
- CNC(=O)N1CCc2cc(OCCN3CCC4(CC3)C(=O)Nc3ccc(C#N)cc34)ccc2C1: 4860
- CS(=O)(=O)C1(c2ccc(OCCN3CCC4(CC3)C(=O)N(CC(F)(F)F)c3ccc(Cl)cc34)cc2)COC1: 231
